Assay: Molar extinction coefficient in pure water
Assay type: physicochemical
Structures can show the parent of a compound that is named as a salt.
measureName: Extinction coefficient ε, 250 nm (L/mol/cm)

compound	experimentalValue
COc1c2occc2cc2ccc(=O)oc12 [8-methoxypsoralen, 8-methoxy psoralen]	19000
COCc1c(C)oc2c(C)c3oc(=O)cc(C)c3cc12	21000
Cc1oc2c(C)c3oc(=O)cc(C)c3cc2c1CO	25000
Cc1oc2c(C)c3oc(=O)cc(C)c3cc2c1CN [hydrochloride]	25000
Cc1cc2cc3c(C)cc(=O)oc3c(C)c2o1 [trioxsalen, 4,5',8-trimethyl psoralen, reference compound]	18000
